experiment: Octanol/water distribution coefficient logD at pH 7.4; assay type: physicochemical; settings: octanol/water distribution coefficient, read-out: logD(7.4)
Where a name gives a salt, the structure may show the parent alone.
readout.label: logD

Need logD of N=C(N)c1ccc(CNC(=O)[C@@H]2CCCN2C(=O)[C@@H](CC2CCCCC2)NCC(=O)O)cc1O [Example 3, hydrochloride] , thanks.
0.55

====

experiment: Octanol/water distribution coefficient logD at pH 7.4; assay type: physicochemical
Counter-ions that a name gives are not always drawn.
readout.label: logD
Quick one: just the number, no unit, thanks!

Need logD of CCS(=O)(=O)N[C@H](CC1CCCCC1)C(=O)N1CCC[C@H]1C(=O)NCc1ccc(C(=N)N)c(O)c1 [Example 5, hydrochloride] , thanks.
1.91

Values from patent US6534650B2
